# Tested on: HPIV3 clinical isolate (CI-1) eGFP
# assay-name: microbe, parasite or virus in culture
# settings: Human respirovirus 3, read-out: IC50 for inhibition of viral entry
observation-type: IC50

// query Give the measured IC50 of CC(=O)Nc1cc(NS(=O)(=O)c2ccc(F)cc2F)ccc1O .
// result ~37 µM

###

# Tested on: mCherry-HPIV3
# assay-name: microbe, parasite or virus in culture
# settings: Human respirovirus 3, Vero, read-out: IC50 of pure compound (inhibition of viral spread)
observation-type: IC50
Please don't drop the unit; write it after the number.

// query Give the measured IC50 of CC(=O)Nc1cc(NS(=O)(=O)c2ccc(F)cc2F)ccc1O [PAC-3066] .
// result 308 µM
